meta.source: patent US20180057581A1

# Lookup of reported pEC50 keyed by entry
# experimental system: M-CSF endogenously expressed on MDA-MB-231 cells (human) (UniProt P09603)
# test: FACS, MDA-MB-231 cells endogenously expressing M-CSF (n = 2)
pEC50: −log10 of the molar value.

binder: Laurine, IgG1_D265A (antibody, V domains shown) VH: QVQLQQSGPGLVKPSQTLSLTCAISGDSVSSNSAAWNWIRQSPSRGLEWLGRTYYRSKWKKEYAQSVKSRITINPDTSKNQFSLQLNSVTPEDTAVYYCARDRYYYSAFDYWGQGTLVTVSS VL: DIALTQPASVSGSPGQSITISCTGTSSDVGGYNSVSWYQQHPGKAPKLMIYAVSNRPSGVSNRFSGSKSGNTASLTISGLQAEDEADYYCASYDERFTRVFGGGTKLTVLG
pEC50: 8.05
--
binder: Satine, IgG1_D265A (antibody, V domains shown) VH: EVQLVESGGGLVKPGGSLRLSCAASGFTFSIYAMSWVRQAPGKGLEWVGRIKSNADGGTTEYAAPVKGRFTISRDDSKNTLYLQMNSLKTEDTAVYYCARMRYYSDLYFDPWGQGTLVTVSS VL: SYELTQPPSVSVSPGQTASITCSGDKLGQKYVSWYQQKPGQSPVLVISQDRKRPSGIPERFSGSNSGNTATLTISGTQAEDEADYYCQTWTHLQWVFGGGTKLTVLG
pEC50: 7.59
--
binder: HeRX1-10G1, IgG1 (antibody, V domains shown) VH: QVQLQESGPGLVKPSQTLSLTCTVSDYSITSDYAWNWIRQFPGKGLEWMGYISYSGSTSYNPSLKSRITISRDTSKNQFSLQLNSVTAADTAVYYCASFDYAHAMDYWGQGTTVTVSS VL: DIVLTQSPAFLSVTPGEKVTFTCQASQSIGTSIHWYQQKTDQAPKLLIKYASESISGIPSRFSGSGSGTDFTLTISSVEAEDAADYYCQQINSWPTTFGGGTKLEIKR
pEC50: 7.57
--
binder: Celine, IgG1_D265A (antibody, V domains shown) VH: QVQLQQSGPGLVKPSQTLSLTCAISGDSVSTSSAAWNWIRQSPSRGLEWLGRTYYRSKWKHEYAVSVKSRITINPDTSKNQFSLQLNSVTPEDTAVYYCARDRYYYSAFDYWGQGTLVTVSS VL: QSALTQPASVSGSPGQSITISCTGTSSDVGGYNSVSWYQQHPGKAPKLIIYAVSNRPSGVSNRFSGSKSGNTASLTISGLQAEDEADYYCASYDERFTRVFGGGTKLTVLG
pEC50: 7.89
--
binder: Maelle, IgG1_D265A (antibody, V domains shown) VH: QVQLQQSGPGLVKPSQTLSLTCAISGESVSTSSAAWNWIRQSPSRGLEWLGRTYYRSKWKKEYAQSVKSRITINPDTSKNQFSLQLNSVTPEDTAVYYCARDRYYYSAFDYWGQGTLVTVSS VL: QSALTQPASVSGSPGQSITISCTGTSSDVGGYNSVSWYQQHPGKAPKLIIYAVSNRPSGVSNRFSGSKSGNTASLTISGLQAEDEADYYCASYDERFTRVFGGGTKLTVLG
pEC50: 8.10
--
binder: Romaine, IgG1_D265A (antibody, V domains shown) VH: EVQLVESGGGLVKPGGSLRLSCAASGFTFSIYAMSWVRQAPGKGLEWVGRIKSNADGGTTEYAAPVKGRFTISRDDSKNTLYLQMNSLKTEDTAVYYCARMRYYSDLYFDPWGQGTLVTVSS VL: DIELTQPPSVSVSPGQTASITCSGDAIGSKYVHWYQQKPGQAPVLVISKDNKRPSGIPERFSGSNSGNTATLTISGTQAEDEADYYCQTATVSSYWWVFGGGTKLTVLG
pEC50: 7.72
